biological target: Homeodomain-interacting protein kinase 1 (Homo sapiens); conditions: at 1 µM
Description: Millipore: Percentage of residual kinase activity of HIPK1 at 1uM relative to control. Control inhibitor: Phosphoric acid* at 0.3uM. Buffer: 8 mM MOPS pH 7.0, 0.2 mM EDTA
List of residual activity values.
Answer as a quantity: numeral, then unit.

Worked cases, residual activity given:
CCC(=O)Nc1ccc2ncnc(Nc3cccc(Br)c3)c2c1
98%
O=[N+]([O-])c1ccc(-c2nc(-c3ccc(F)cc3)c(-c3ccncc3)[nH]2)cc1
111%
CCOc1cc2ncnc(Nc3cccc(Br)c3)c2cc1OCC
103%
CC(=O)O/N=C1\C(=C2\C(=O)Nc3cc(Br)ccc32)Nc2ccccc21
95%
O=C1c2ccccc2-[n+]2ccc3c([nH]c4ccccc43)c21
97%
C[C@@H](N)[C@H]1CC[C@H](C(=O)Nc2ccncc2)CC1
102%
O=C(O)c1ccc2c3c1cccc3c(=O)n1c3ccccc3nc21
104%
CNc1cc2c(Nc3cccc(Br)c3)ncnc2cn1
103%

**Query** Sample `O=C(Nc1cccc(Nc2nccc(Nc3cccc(C(F)(F)F)c3)n2)c1)C1CC1` — what was its residual activity?
**Result** 96%

**Query** Query (compound): `Cc1ccc(S(=O)(=O)/C=C/C#N)cc1` ; field requested: residual activity
**Result** 104%

**Query** # residual activity lookup, item `Nc1n[nH]c2nnc(-c3c(-c4ccccc4)nn4ccccc34)cc12`
**Result** 105%

**Query** Which residual activity reading was recorded for the compound `Cn1cnc2cc3c(Nc4cccc(Br)c4)ncnc3cc21` ?
**Result** 96%

**Query** What value of measured residual activity is listed for `O=C1NC(=O)c2c1c1c3ccccc3[nH]c1c1[nH]c3cc(Br)ccc3c21` ?
**Result** 102%

**Query** May I ask what residual activity has been recorded for `O=c1cc(-c2cccc3c2Sc2ccccc2S3)oc(N2CCOCC2)c1` ?
**Result** 105%

**Query** Consider the compound `Nc1ccc2ncnc(NCCc3ccc(Oc4ccccc4)cc3)c2c1` and give its measured residual activity.
**Result** 115%

**Query** Quick one: residual activity of `COc1ccc(S(=O)(=O)N(CCO)c2ccccc2CN(C)C/C=C/c2ccc(Cl)cc2)cc1` ?
**Result** 112%

**Query** Give its residual activity value. Item: `c1ccc(-c2n[nH]cc2-c2ccnc3ccccc23)nc1`
**Result** 98%

**Query** Please report the recorded residual activity for `CC#CC(=O)Nc1cc2c(Nc3ccc(F)c(Cl)c3)ncnc2cn1` .
**Result** 98%

**Query** # query: residual activity of entry `Oc1c2ccccc2c2c3c(cccc13)N=N2`
**Result** 93%

**Query** // lookup residual activity for `O=C1NC(=O)/C(=C/c2ccc3c(c2)OC(F)(F)O3)S1`
**Result** 99%

* * *

target: SRSF protein kinase 3 (Homo sapiens); conditions: at 10 µM
Description: Millipore: Percentage of residual kinase activity of SRPK3 at 10uM relative to control. Control inhibitor: Phosphoric acid* at 0.3uM. Buffer: 8 mM MOPS pH 7.0, 0.2 mM EDTA
measurement_type: residual activity (%)
Numbers only here, please. The scale is %.

Would you please look over these solved cases?
COc1cc2ncnc(N3CCN(C(=O)Nc4ccc(Oc5ccccc5)cc4)CC3)c2cc1OC
79
O=C1Nc2ccc(Br)cc2/C1=C\c1cc2c([nH]1)CCCC2
80
c1ccc2c(-c3ccncc3)c[nH]c2c1
80

Now consider the entry below.
**Query** Form field: reported residual activity of `N#CC(C#N)=C(N)/C(C#N)=C/c1ccc(O)cc1`
**Result** 82

* * *

molecular target: Ephrin type-A receptor 2 (Homo sapiens); conditions: at 1 µM
// reported residual activity per item
Give the quantity in %, number only.

COc1ccc(OC)c2c(=S)c3ccccc3[nH]c12
96
O=C1NC(=O)c2c1c1c3ccccc3[nH]c1c1[nH]c3cc(Br)ccc3c21
98
Cc1cc(Nc2nc(-c3ccccc3)nc3ccccc23)n[nH]1
75

**Query** // query residual activity value for entry `COc1ccc(CNc2nc(N(CCO)CCO)nc3c2ncn3C(C)C)cc1`
**Result** 95

**Query** Requested read-out: residual activity. Entry: `Oc1ccc(Nc2nc(-c3ccc(Cl)cc3)cs2)cc1`
**Result** 88

**Query** Can you share its residual activity? I mean this molecule: `CN(C)c1ccc(/C=C2\C(=O)Nc3ccccc32)cc1`
**Result** 123

**Query** Param item = `Cc1cncc2cccc(S(=O)(=O)N3CCCN(C(=O)CN)C[C@H]3C)c12` ; retrieve measured residual activity.
**Result** 92

**Query** // lookup residual activity for `Cc1ccc(NC2=CC(=O)c3sc(C)nc3C2=O)cc1`
**Result** 95

**Query** Which residual activity reading was recorded for the molecule `Cc1nc(-c2ccccc2)c(-c2ccncc2)o1` ?
**Result** 93

**Query** # input molecule: O=C1Nc2ccccc2/C1=C1/Nc2ccccc2/C1=N\OCCC(O)CO (centres undefined) ; wanted: its residual activity
**Result** 54

**Query** Consider the molecule shown here: `Cn1nc2c3c(cccc31)C(=O)c1ccccc1-2` What is its recorded residual activity?
**Result** 92

**Query** Look at this molecule and give its reported residual activity. `N#C/C(=C(\N)Sc1ccc(N)cc1)c1ccccc1C(F)(F)F`
**Result** 98

**Query** Bench note: what residual activity did `CCN(CC)C(=O)c1ccc(Nc2nc(OCC3CCCCC3)c3nc[nH]c3n2)cc1` show?
**Result** 77

**Query** For the molecule shown here, `O=C1Nc2ccc(Br)cc2/C1=C\c1cc2c([nH]1)CCCC2` , give the reported residual activity.
**Result** 112

**Query** Form field: reported residual activity of `CC#CC(=O)Nc1cc2c(Nc3ccc(F)c(Cl)c3)ncnc2cn1`
**Result** 100

**Query** I have this molecule here, `Nc1n[nH]c2nnc(-c3c(-c4ccccc4)nn4ccccc34)cc12` , and I need its recorded residual activity.
**Result** 91

**Query** What value of residual activity has been recorded for this entry: `O=c1c2ccccc2[nH]c(=S)n1CCN1CCC(=C(c2ccc(F)cc2)c2ccc(F)cc2)CC1`
**Result** 116

**Query** Give the measured residual activity of `Oc1c2ccccc2c2c3c(cccc13)N=N2` .
**Result** 88

**Query** Which residual activity reading was recorded for the molecule `CCN(CC)CCCCN1c2ccccc2Oc2ccc(Cl)cc21` ?
**Result** 108

**Query** Query: residual activity; subject: `Nc1nc(Nc2ccc(S(N)(=O)=O)cc2)nn1C(=S)Nc1c(F)cccc1F`
**Result** 13

**Query** Using the record for `COc1cc2ncnc(Nc3ccc(O)c(Br)c3)c2cc1OC` , report its residual activity.
**Result** 90

**Query** So what's the measured residual activity for this one? `COc1cccc(-c2cc(=O)c3ccccc3o2)c1N`
**Result** 97

* * *

target: Serine/threonine-protein kinase 4 (Homo sapiens) (UniProt Q13043); conditions: at 1 µM
Sequence (Q13043 whole entry): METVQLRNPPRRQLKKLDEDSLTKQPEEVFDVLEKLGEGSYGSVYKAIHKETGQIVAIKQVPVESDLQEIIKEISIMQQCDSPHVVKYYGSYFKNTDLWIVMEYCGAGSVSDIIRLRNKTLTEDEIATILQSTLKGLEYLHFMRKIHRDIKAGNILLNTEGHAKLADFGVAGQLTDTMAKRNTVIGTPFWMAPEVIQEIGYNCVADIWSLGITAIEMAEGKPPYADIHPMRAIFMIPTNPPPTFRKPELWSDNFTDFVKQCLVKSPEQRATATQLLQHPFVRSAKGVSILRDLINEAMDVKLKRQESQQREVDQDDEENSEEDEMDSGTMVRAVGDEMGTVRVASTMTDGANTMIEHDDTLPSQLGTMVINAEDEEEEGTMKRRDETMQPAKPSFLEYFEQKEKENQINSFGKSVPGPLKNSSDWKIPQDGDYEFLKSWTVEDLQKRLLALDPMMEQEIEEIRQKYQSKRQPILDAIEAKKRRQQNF
measurement_type: residual activity (%)
Return type: number; implicit unit %.

Cc1cc(Nc2nc(-c3ccccc3)nc3ccccc23)n[nH]1
48

Consider the record given below.
**Query** Lab note: need residual activity with Serine/threonine-protein kinase 4 (Homo sapiens) (UniProt Q13043) for entry `Cn1cc(/C=C2\C(=O)Nc3ccc(S(N)(=O)=O)cc32)c2ccccc21` , please look it up.
**Result** 13

* * *

Overview of reported residual activity across a group of compounds:
target: Tyrosine-protein kinase JAK3 (Homo sapiens) (UniProt P52333); settings: at 10 µM
Sequence (P52333 whole entry): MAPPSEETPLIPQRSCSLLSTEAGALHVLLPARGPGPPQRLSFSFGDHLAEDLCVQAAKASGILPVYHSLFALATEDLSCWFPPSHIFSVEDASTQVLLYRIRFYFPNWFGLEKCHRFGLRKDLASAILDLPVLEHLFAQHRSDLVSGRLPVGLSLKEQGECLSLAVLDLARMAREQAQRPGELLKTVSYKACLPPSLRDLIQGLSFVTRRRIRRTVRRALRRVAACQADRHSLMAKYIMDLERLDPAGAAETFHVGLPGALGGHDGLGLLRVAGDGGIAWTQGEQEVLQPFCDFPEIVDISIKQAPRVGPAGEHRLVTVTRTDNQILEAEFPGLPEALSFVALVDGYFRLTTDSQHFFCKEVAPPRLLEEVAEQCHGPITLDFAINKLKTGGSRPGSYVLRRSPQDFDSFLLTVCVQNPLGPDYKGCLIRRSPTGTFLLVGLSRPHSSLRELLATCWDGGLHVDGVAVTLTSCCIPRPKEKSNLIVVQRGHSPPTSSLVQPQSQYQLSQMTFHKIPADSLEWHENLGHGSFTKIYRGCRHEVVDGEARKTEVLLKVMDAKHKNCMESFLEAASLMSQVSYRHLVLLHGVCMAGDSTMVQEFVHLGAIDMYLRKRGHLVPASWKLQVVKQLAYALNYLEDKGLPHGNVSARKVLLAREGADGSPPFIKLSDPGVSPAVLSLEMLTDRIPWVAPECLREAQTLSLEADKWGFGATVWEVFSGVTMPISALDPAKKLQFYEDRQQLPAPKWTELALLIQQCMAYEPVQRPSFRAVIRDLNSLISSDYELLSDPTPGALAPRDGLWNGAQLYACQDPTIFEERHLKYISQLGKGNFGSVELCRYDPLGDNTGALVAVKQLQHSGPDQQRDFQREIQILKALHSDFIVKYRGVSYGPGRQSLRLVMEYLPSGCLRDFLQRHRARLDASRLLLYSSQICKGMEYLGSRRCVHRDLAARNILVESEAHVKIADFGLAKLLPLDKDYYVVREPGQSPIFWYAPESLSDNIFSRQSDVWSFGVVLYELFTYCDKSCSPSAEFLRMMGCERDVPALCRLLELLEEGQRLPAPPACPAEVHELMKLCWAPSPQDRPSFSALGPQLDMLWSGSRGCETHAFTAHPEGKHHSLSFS
The reply should be a number in %, with the unit left off.

Cc1ccc(NC2=CC(=O)c3sc(C)nc3C2=O)cc1
107
O=C1Nc2ccc(Br)cc2/C1=C\c1cc2c([nH]1)CCCC2
101
Nc1cccc(-c2cc3c(Oc4cccc(O)c4)ncnc3[nH]2)c1
21
Cc1nc(-c2ccccc2)c(-c2ccncc2)o1
114

**Query** I am curious: what residual activity value has been reported for `O=C1NC(=O)/C(=C\c2ccc3nccnc3c2)S1` ?
**Result** 67

**Query** Please give the measured residual activity for this compound: `CC(C)n1cnc2c(NCc3ccccc3)nc(NCCCO)nc21`
**Result** 108

**Query** Suppose we examine the compound `O=C(Nc1cccc(Nc2cc(Nc3cccc(C(F)(F)F)c3)ncn2)c1)C1CC1` ; what residual activity value has been reported?
**Result** 115

* * *

molecular target: Mitogen-activated protein kinase 14 (Homo sapiens); settings: at 10 µM
measurement_type: residual activity

Previously resolved entries follow.
Nc1nc(Nc2ccc(S(N)(=O)=O)cc2)nn1C(=S)Nc1c(F)cccc1F
53%
NC(=O)c1ccc2[nH]c(-c3ccc(Oc4ccc(Cl)cc4)cc3)nc2c1
84%
O=C1Nc2ccccc2/C1=C1/Nc2ccccc2/C1=N\OCCC(O)CO (stereo not drawn)
78%
O=C(Nc1cccc(Nc2nccc(Nc3cccc(C(F)(F)F)c3)n2)c1)C1CC1
59%
O=C(Nc1cccc(Nc2cc(Nc3cccc(C(F)(F)F)c3)ncn2)c1)C1CC1
40%
Nc1ccc2ncnc(NCCc3ccc(Oc4ccccc4)cc3)c2c1
91%
Cc1cncc2cccc(S(=O)(=O)N3CCCN(C(=O)CN)C[C@H]3C)c12
81%
Cc1cccc(-c2[nH]c(C(C)(C)C)nc2-c2ccc3c(c2)OCO3)n1
16%

**Query** Provide the documented residual activity with Mitogen-activated protein kinase 14 (Homo sapiens) as the system for `Oc1c2ccccc2c2c3c(cccc13)N=N2`
**Result** 85%

Entry source: ChEMBL document CHEMBL2218924
